# assay_system: Mitogen-activated protein kinase 14 (Homo sapiens) (UniProt Q16539)
# Sequence (Q16539 whole entry): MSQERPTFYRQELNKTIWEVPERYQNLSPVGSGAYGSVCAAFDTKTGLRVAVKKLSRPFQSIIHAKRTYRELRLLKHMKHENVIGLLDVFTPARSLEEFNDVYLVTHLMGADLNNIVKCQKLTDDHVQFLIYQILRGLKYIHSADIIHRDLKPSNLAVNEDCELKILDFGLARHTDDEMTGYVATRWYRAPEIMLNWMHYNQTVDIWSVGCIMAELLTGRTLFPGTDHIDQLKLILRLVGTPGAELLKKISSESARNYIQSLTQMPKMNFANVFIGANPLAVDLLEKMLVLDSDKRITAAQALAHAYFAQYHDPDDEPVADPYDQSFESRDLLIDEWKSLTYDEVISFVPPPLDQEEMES
# experiment_notes: Inhibition of p38alpha MAP kinase at 10 uM
# Parameters: scale not given: the % may be the effect or the level left
observation_type: Activity (%)

NS(=O)(=O)c1ccc(Cc2nc(-c3ccc4nccnc4c3)c(-c3ccccn3)[nH]2)cc1: 95
CCc1cccc(-c2[nH]c(CCc3ccc(S(N)(=O)=O)cc3)nc2-c2ccc3nccnc3c2)n1: 96
Cc1cccc(-c2[nH]c(CCc3ccc(S(N)(=O)=O)cc3)nc2-c2ccc3nccnc3c2)n1: 91
CC(C)c1cccc(-c2[nH]c(CCc3ccc(S(N)(=O)=O)cc3)nc2-c2ccc3nccnc3c2)n1: 105
CCCCc1cccc(-c2[nH]c(CCc3ccc(S(N)(=O)=O)cc3)nc2-c2ccc3nccnc3c2)n1: 97
Cc1cccc(-c2[nH]c(Cc3ccc(S(N)(=O)=O)cc3)nc2-c2ccc3nccnc3c2)n1: 89
CCc1cccc(-c2[nH]c(Cc3ccc(S(N)(=O)=O)cc3)nc2-c2ccc3nccnc3c2)n1: 92
CCCc1cccc(-c2[nH]c(Cc3ccc(S(N)(=O)=O)cc3)nc2-c2ccc3nccnc3c2)n1: 105

P = CCCc1cccc(-c2[nH]c(CCc3ccc(S(N)(=O)=O)cc3)nc2-c2ccc3nccnc3c2)n1
Q = NC(=O)c1ccc(-c2nc(-c3ccccn3)c(-c3ccc4c(c3)OCO4)[nH]2)cc1
(Q) Smaller Activity value, P vs Q ? # respond with the chosen item's label
(A) Q

---

# assay_system: Mitogen-activated protein kinase 14 (Homo sapiens)
# experiment_notes: Inhibition of p38alpha MAP kinase at 10 uM
# Parameters: scale not given: the % may be the effect or the level left
observation_type: Activity (%)

NS(=O)(=O)c1ccc(CCc2nc(-c3ccc4nccnc4c3)c(-c3ccccn3)[nH]2)cc1: 97
CC(C)c1cccc(-c2[nH]c(Cc3ccc(S(N)(=O)=O)cc3)nc2-c2ccc3nccnc3c2)n1: 98
CCCCc1cccc(-c2[nH]c(Cc3ccc(S(N)(=O)=O)cc3)nc2-c2ccc3nccnc3c2)n1: 104
